Biological target: human OX2 receptor (Homo sapiens)
Construct: expressed in transfected cells; host or cells: CHO cells
Assay: Measurement of orexin receptor antagonistic activity (calcium fluorescence, FLIPRtetra)
Format: cell-based
Conditions: CHO, 10 μM test compound; CHO cells expressing human OX2 receptor; OX-A 0.3 nM; read-out: Human Orexin2 receptor inhibition (at 10 μM)
Structures can show the parent of a compound that is named as a salt.
Quantity Kind: inhibition at 10 µM (%)

* Cc1cc(N2CCN(C(=O)c3ccccc3-c3ncccn3)CCO2)nc(C)n1 | 101
* Cc1cc(N2CCN(C(=O)c3cc(F)ccc3-n3nccn3)CCO2)nc(C)n1 | 91
* Cc1cc(N2CCN(C(=O)c3ccccc3-c3ccccn3)CCO2)nc(C)n1 [Example 43, hydrochloride] | 91

P = Cc1cc(N2CCN(C(=O)c3ccccc3-c3cncs3)CCO2)nc(C)n1
Q = Cc1cc(N2CCN(C(=O)c3cc(C4CCC4)ccc3-n3nccn3)CCO2)nc(C)n1
Record comparison, field inhibition at 10 µM: mark the lower of P and Q . Bench note: the answer is the label of the chosen record.
Q
(Q: 56%, P: 96%)

----------
Molecular target: human OX1 receptor (Homo sapiens)
Construct: expressed in transfected cells; host or cells: CHO cells
Sequence (O43613 1-425): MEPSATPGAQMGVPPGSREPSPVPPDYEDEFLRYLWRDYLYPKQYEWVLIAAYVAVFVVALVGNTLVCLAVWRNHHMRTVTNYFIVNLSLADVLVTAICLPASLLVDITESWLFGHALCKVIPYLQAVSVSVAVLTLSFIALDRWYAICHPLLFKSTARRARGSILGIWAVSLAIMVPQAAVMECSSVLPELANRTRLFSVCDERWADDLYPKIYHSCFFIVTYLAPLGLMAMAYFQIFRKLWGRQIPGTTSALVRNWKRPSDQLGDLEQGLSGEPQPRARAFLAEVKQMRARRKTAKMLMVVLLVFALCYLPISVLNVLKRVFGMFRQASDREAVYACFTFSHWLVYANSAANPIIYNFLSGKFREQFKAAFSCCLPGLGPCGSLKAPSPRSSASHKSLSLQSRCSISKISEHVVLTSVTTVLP
Test: Measurement of orexin receptor antagonistic activity (calcium fluorescence, FLIPRtetra)
Assay type: cell-based
Conditions: CHO, 10 μM test compound; CHO cells expressing human OX1 receptor; OX-A 1 nM; read-out: Human Orexin1 receptor inhibition (at 10 μM)
Method: Measurement of Orexin Receptor Antagonistic Activity CHO cells forcibly expressing human OX1 receptor or human OX2 receptor were seeded in each well of 384 well black transparent bottom plate (BD Falcon) at 7,500 cells/well, and cultured for one day in a 5% CO2 incubator at 37° C. […] The plate was stood for 30 min in a 5% CO2 incubator at 37° C., and further stood at room temperature for 30 min. […]
Structures can show the parent of a compound that is named as a salt.
Quantity Kind: inhibition at 10 µM (%)

* Cc1cc(N2CCN(C(=O)c3ccc(F)cc3-c3ncccn3)C[C@H](C)O2)nc(C)n1 | 91

A = COc1cccnc1N1CCN(C(=O)c2cc(C)ccc2-n2nccn2)[C@H](C)CO1
B = Cc1cc(N2CCN(C(=O)c3ccccc3-c3ccccn3)CCO2)nc(C)n1 [Example 43, hydrochloride]
C = Cc1ccc(-n2nccn2)c(C(=O)N2[C@H](C)CON(c3cc(C(F)F)nc(C)n3)C[C@@H]2C)c1
D = COc1cccc(N2CCN(C(=O)c3ccccc3-c3nccs3)CCO2)n1
Task field, ranking: reported inhibition at 10 µM, descending order. Reply with the labels, ordered as the question asks.
C, D, B, A
(C: 102%, D: 67%, B: 35%, A: 23%)

----------
Target: human OX2 receptor (Homo sapiens, UniProt O43614)
Construct: expressed in transfected cells; host or cells: CHO cells
Sequence (O43614 whole entry): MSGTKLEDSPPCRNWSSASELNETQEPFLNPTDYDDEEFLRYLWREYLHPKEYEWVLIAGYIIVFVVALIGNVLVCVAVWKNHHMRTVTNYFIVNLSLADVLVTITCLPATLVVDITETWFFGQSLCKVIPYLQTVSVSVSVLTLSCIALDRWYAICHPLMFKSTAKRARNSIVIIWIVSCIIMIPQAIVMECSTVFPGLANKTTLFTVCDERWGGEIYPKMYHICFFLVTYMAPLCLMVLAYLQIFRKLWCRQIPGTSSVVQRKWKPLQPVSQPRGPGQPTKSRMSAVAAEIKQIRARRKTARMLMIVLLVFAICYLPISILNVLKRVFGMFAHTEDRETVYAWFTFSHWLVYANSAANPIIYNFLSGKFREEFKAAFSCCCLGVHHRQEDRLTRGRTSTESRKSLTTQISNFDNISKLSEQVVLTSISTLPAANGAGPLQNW
Test: Measurement of orexin receptor antagonistic activity (calcium fluorescence, FLIPRtetra)
Assay type: cell-based
Settings: CHO, 10 μM test compound; CHO cells expressing human OX2 receptor; OX-A 0.3 nM; read-out: Human Orexin2 receptor inhibition (at 10 μM)
Quantity Kind: inhibition at 10 µM (%)

* Cc1cc(C)nc(N2CCN(C(=O)c3cccc(Cl)c3Cl)CCO2)n1 | 96
* Cc1cc(N2CCN(C(=O)c3cc(F)c(F)cc3-n3nccn3)CCO2)nc(C)n1 | 102
* Cc1nc(C(F)F)cc(N2C[C@H](C)N(C(=O)c3cc(Cl)ccc3-n3nccn3)[C@H](C)CO2)n1 | 98
* Cc1cc(N2CCN(C(=O)c3ccccc3-c3csc(C)n3)CCO2)nc(C)n1 | 100
* Cc1cc(N2CCN(C(=O)c3cc(Br)ccc3-n3nccn3)CCO2)nc(C)n1 | 100
* Cc1cc(C)nc(N2CCN(C(=O)c3ccccc3-c3ncc[nH]3)CCO2)n1 | 83
* COc1cccc(N2CCN(C(=O)c3ccccc3-n3nccn3)[C@H](C)CO2)n1 | 91
* Cc1cc(C)nc(N2CCN(C(=O)c3cc(Cl)cc(Cl)c3)CCO2)n1 | 96

----------
Biological target: human OX2 receptor (Homo sapiens)
Construct: expressed in transfected cells; host or cells: CHO cells
Test: Measurement of orexin receptor antagonistic activity (calcium fluorescence, FLIPRtetra)
Type: cell-based
Details: CHO, 10 μM test compound; CHO cells expressing human OX2 receptor; OX-A 0.3 nM; read-out: Human Orexin2 receptor inhibition (at 10 μM)
Quantity Kind: inhibition at 10 µM (%)

* Cc1cc(N2CCN(C(=O)c3cc(Cl)ccc3-c3ncccn3)CCO2)nc(C)n1 | 101
* Cc1cc(N2CCN(C(=O)c3cc(Cl)ccc3-c3ncccn3)[C@H](C)CO2)nc(C)n1 | 102
* Cc1ccc(-n2nccn2)c(C(=O)N2CCN(c3ncccc3Cl)OC[C@H]2C)c1 | 69
* Cc1nc(C(F)F)cc(N2C[C@H](C)N(C(=O)c3cc(F)ccc3-n3nccn3)[C@H](C)CO2)n1 | 101
* Cc1nc(N2CCN(C(=O)c3ccccc3-c3ncccn3)[C@H](C)CO2)cc(C(F)(F)F)n1 | 103
* CC[C@@H]1CON(c2cc(C)nc(C)n2)CCN1C(=O)c1ccccc1-n1nccn1 | 99
* Cc1ccc(-n2nccn2)c(C(=O)N2[C@H](C)CON(c3cc(C(F)(F)F)nc(C)n3)C[C@@H]2C)c1 | 99
* Cc1cc(N2CCN(C(=O)c3ccccc3-c3nccs3)[C@@H](C)CO2)nc(C)n1 | 102
* Cc1cc(N2C[C@H](C)N(C(=O)c3ccccc3-n3nccn3)[C@H](C)CO2)ncn1 | 98
